- Assayed target: MYT1 protein (Homo sapiens (Human))
- Test details: Test for binding to ATP binding site of MYT1 (Kinase Tracer 178 / Eu-Anti-GST antibody TR-FRET)
- Conditions: ATP binding site of MYT1, 30 minutes at room temperature
Experimental endpoint: IC50 (nM)

Solved cases (3 shown):
| Compound | Experimental endpoint | Value reported |
| --- | --- | --- |
| Nc1c(-c2ccc(F)c3[nH]ncc23)c2cc(/C=C/CCO)c3ncccc3c2[nH]c1=O | IC50 | 1.5 |
| C=C(C)c1cc2c(-c3ccc(F)c4[nH]ncc34)c(N)c(=O)[nH]c2c2cccnc12 | IC50 | 4.3 |
| Nc1c(-c2ccc(F)c3[nH]ncc23)c2cc(C3CCC4(CC3)OCCO4)c3ncccc3c2[nH]c1=O.O=C(O)C(F)(F)F [Compound C101, 2,2,2-trifluoroacetate] | IC50 | 6.1 |

a. Nc1c(-c2ccc(F)c3[nH]ncc23)c2cc(Br)c3ccccc3c2[nH]c1=O
b. Nc1c(-c2c(F)ccc3[nH]ncc23)c2cc(Br)c3ncccc3c2[nH]c1=O
Input: Higher IC50: a or b ? Give the label under which the chosen entry appears.
Output: a
(a: 20 nM, b: 3.3 nM)

P. N#CC1(Cc2cc3c(-c4ccc(F)c5[nH]ncc45)c(N)c(=O)[nH]c3c3cccnc23)CC1
Q. Nc1c(-c2ccc(Cl)c3[nH]ncc23)c2cc(C3CCCC3)c3ccccc3c2[nH]c1=O
R. Nc1c(-c2ccc3cn[nH]c3c2)c2cc(Cl)ccc2[nH]c1=O
Input: Could you please sort these 3 entries by IC50 from high to low? Answer format: list of labels, ordered as asked.
Output: R, Q, P
(R: 790 nM, Q: 13 nM, P: 2.1 nM)

I. Nc1c(-c2ccc(F)c3[nH]ncc23)c2cc(OC3CCS(=O)(=O)CC3)c3ncccc3c2[nH]c1=O
II. Nc1c(-c2c(F)ccc3[nH]ncc23)c2cc(C3CC3)c3ncccc3c2[nH]c1=O (racemic) [Compound C156]
Input: Field: lower recorded IC50 (choose I or II ) Which one? Tell me its label.
Output: II

P. Nc1c(-c2ccc(F)c3[nH]ncc23)c2cc(Br)c3ccsc3c2[nH]c1=O
Q. Cc1nccc2c1c(Br)cc1c(-c3ccc(F)c4[nH]ncc34)c(N)c(=O)[nH]c12 [Compound P2]
R. Nc1c(-c2ccc(F)c3[nH]ncc23)c2cc(OCC3(F)CCC3)c3ncccc3c2[nH]c1=O
Input: Order by IC50, ascending. // format: requested-order list of labels
Output: R, P, Q

P. Nc1c(-c2ccc(F)c3[nH]ncc23)c2cc(OCCC(F)F)c3nccnc3c2[nH]c1=O
Q. Cc1ccc2c(n1)c(C1CC1)cc1c(-c3ccc(F)c4[nH]ncc34)c(N)c(=O)[nH]c12
Input: Pick the one with the larger IC50: P vs Q To answer, give the label that identifies your chosen option.
Output: Q
(Q: 5.5 nM, P: 0.79 nM)

====

- Assayed target: MYT1 protein (Homo sapiens (Human), UniProt Q99640)
- Sequence (Q99640 whole entry): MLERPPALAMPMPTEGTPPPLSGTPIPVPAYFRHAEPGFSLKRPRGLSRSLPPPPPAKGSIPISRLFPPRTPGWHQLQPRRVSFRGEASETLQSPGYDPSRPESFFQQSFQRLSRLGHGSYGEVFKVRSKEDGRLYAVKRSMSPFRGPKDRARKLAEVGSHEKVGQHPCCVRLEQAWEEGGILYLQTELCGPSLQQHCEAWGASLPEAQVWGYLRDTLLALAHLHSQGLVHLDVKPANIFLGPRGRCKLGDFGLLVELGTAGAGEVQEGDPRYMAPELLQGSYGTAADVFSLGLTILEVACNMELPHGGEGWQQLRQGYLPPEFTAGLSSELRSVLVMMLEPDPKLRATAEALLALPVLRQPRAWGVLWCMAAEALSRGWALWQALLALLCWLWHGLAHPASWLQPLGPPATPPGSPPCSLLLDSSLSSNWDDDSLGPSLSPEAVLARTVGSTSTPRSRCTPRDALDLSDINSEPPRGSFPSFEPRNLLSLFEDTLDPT
- Test details: Test for binding to ATP binding site of MYT1 (Kinase Tracer 178 / Eu-Anti-GST antibody TR-FRET)
- Conditions: ATP binding site of MYT1, 30 minutes at room temperature
Experimental endpoint: IC50 (µM)

Below: 3 compounds and their reported IC50.
| Compound | IC50 / µM |
| --- | --- |
| Nc1c(-c2c(F)ccc3[nH]ncc23)c2cc(Cl)ccc2[nH]c1=O | 0.13 |
| Nc1c(-c2ccc(F)c3[nH]ncc23)c2cc(SC(F)F)c3ncccc3c2[nH]c1=O | 0.0011 |
| N#CC1CC(c2cc3c(-c4ccc(F)c5[nH]ncc45)c(N)c(=O)[nH]c3c3cccnc23)C1 (centres unmarked) | 0.0021 |

1. Cc1cc2c(-c3cccc4[nH]nnc34)c(N)c(=O)[nH]c2c2cccnc12
2. CC[C@H](C)Oc1cc2c(-c3ccc(F)c4[nH]ncc34)c(N)c(=O)[nH]c2c2nccnc12
3. Cc1ccc2[nH]ncc2c1-c1c(N)c(=O)[nH]c2ccc(Cl)cc12
4. Cn1ncc2c(-c3c(N)c(=O)[nH]c4c3cc(Br)c3ncccc34)ccc(F)c21
Input: // ranking: key=IC50, reverse=True // respond by listing labels in the order requested
Output: 1, 4, 3, 2
(1: 3 µM, 4: 1.1 µM, 3: 0.71 µM, 2: 0.00049 µM)

====

- Assayed target: MYT1 protein (Homo sapiens (Human))
- Test details: Test for binding to ATP binding site of MYT1 (Kinase Tracer 178 / Eu-Anti-GST antibody TR-FRET)
- Conditions: ATP binding site of MYT1, 30 minutes at room temperature
pIC50: −log10 of the molar value.
Experimental endpoint: pIC50

| Molecule | pIC50 |
| --- | --- |
| Cc1nc2[nH]c(=O)c(N)c(-c3ccc(Cl)c4[nH]ncc34)c2cc1O[C@H]1C[C@H](F)C1 | 7.89 |

I. Nc1c(-c2ccc(F)c3[nH]ncc23)c2cc([C@H]3CC[C@@H](O)CC3)c3ncccc3c2[nH]c1=O
II. Nc1c(-c2ccc(F)c3[nH]ncc23)c2cc(OCC34CC(C3)C4)c3ncccc3c2[nH]c1=O
Input: Returns: the argument ( I or II ) having the larger pIC50. Select an item and report its label.
Output: II
(II: 8.77, I: 8.31)

P. Nc1c(-c2ccc(F)c3[nH]ncc23)c2cc(N3CCCC3)c3ncccc3c2[nH]c1=O
Q. Nc1c(-c2ccc(F)c3[nH]ncc23)c2ccc3cccnc3c2[nH]c1=O
R. CCOc1cc2c(-c3ccc(F)c4[nH]ncc34)c(N)c(=O)[nH]c2c2ccc(=O)[nH]c12
S. Cn1cnc2c3[nH]c(=O)c(N)c(-c4ccc(F)c5[nH]ncc45)c3ccc21
T. Cn1c(=O)c(N)c(-c2ccc(F)c3[nH]ncc23)c2cc(Br)c3ccccc3c21
Input: List from greatest to least pIC50. Please list the labels according to the requested order.
Output: R, P, Q, S, T

a. Nc1c(-c2ccc(F)c3[nH]ncc23)c2cc(N3CCC(F)(F)CC3)c3ncccc3c2[nH]c1=O
b. Nc1c(-c2ccc(F)c3[nH]ncc23)c2cc(N3CCC(N4CCCC4)CC3)c3ncccc3c2[nH]c1=O
Input: Which numeric pIC50 is bigger, that of a or that of b ? Bench note: the answer is the label of the chosen record.
Output: b
(b: 8.66, a: 8.33)

I. Nc1c(-c2ccc(F)c3[nH]ncc23)c2cc(N3CCS(=O)(=O)CC3)c3ncccc3c2[nH]c1=O
II. Nc1c(-c2cccc3[nH]ncc23)c2ccc3ccccc3c2[nH]c1=O
III. Nc1c(-c2cccc3[nH]ncc23)c2cc(C3CC3)c3cnccc3c2[nH]c1=O [Compound P1]
IV. CC1(C)CC2(CC(c3cc4c(-c5ccc(F)c6[nH]ncc56)c(N)c(=O)[nH]c4c4cccnc34)C2)C1
Input: rank_up(items): orders items by reported pIC50 in ascending numerical order. Thanks in advance for listing the labels in the requested order.
Output: IV, II, I, III
(IV: 6.85, II: 8.20, I: 8.47, III: 8.74)

P. Nc1c(-c2ccc(Cl)c3[nH]ncc23)c2cc(Cl)ccc2[nH]c1=O
Q. Nc1c(-c2ccc(F)c3[nH]ncc23)c2cc(N3CCC(O)C3)c3ncccc3c2[nH]c1=O (stereo not shown)
Input: Kindly identify which of P and Q has the larger recorded pIC50 value. // caller expects the label of the chosen entry
Output: Q

====

- Assayed target: MYT1 protein (Homo sapiens (Human))
- Test details: MYT1 kinase activity inhibition test (ELISA, phosphorylation of Y15 of CDK1)
- Format: biochemical
- Conditions: phosphorylation level of Y15 of CDK1 protein caused by MYT1 protein, 60 minutes
pIC50: −log10 of the molar value.
Experimental endpoint: pIC50

a. Nc1c(-c2ccc(F)c3[nH]ncc23)c2cc(C3CC3)c3cnccc3c2[nH]c1=O.O=C(O)C(F)(F)F [Compound P4, 2,2,2-trifluoroacetate]
b. Nc1c(-c2ccc(F)c3[nH]ncc23)c2ccc3ncccc3c2[nH]c1=O
c. Nc1c(-c2cc(F)cc3[nH]ncc23)c2cc(Cl)ccc2[nH]c1=O
Input: // smallest pIC50 at index 0, largest at the end Please, when replying, give the labels in the order that was requested.
Output: a, c, b
(a: 8.23, c: 8.96, b: 9.70)

====

- Assayed target: MYT1 protein (Homo sapiens (Human), UniProt Q99640)
- Test details: Test for binding to ATP binding site of MYT1 (Kinase Tracer 178 / Eu-Anti-GST antibody TR-FRET)
- Conditions: ATP binding site of MYT1, 30 minutes at room temperature
- Method: The binding capacity of each compound to the ATP binding site of MYT1 Kinase protein was evaluated. […] Thereafter, fluorescence wavelengths of 665 nm and 615 nm generated by irradiation with excitation light of 340 nm were detected using Envision (manufactured by PerkinElmer). The proportion of Tracer bound to MYT1 protein was calculated for every condition by dividing the intensity at the fluorescence wavelength of 665 nm by the intensity at the fluorescence wavelength of 615 nm.
Structures can show the parent of a compound that is named as a salt.
Experimental endpoint: IC50 (nM)

Examples with answers:
| Compound | Experimental endpoint | Value reported |
| --- | --- | --- |
| Nc1c(-c2ccc(Cl)c3[nH]ncc23)c2cc(Cl)cc(Cl)c2[nH]c1=O | IC50 | 12 |
| CC1(c2cc3c(-c4ccc(F)c5[nH]ncc45)c(N)c(=O)[nH]c3c3cccnc23)CC1 | IC50 | 18 |
| Nc1c(-c2ccc(F)c3[nH]ncc23)c2cc(C3CCCO3)c3ncccc3c2[nH]c1=O (centres unmarked) | IC50 | 5.3 |

a. Cn1ncc2c(C3CC3)cc3c(-c4ccc(F)c5[nH]ncc45)c(N)c(=O)[nH]c3c21
b. Cc1cc2c(-c3ccc(F)c4[nH]ncc34)c(N)c(=O)[nH]c2c2c1cnn2C
c. Cc1cc2c(-c3c(F)ccc4[nH]ncc34)c(N)c(=O)[nH]c2c2cccnc12
d. Nc1c(-c2cccc(O)c2)c2ccc3cnccc3c2[nH]c1=O [Compound P5, hydrobromide]
Input: Reorder: IC50, max to min. Dear reader, please state the labels in the requested order.
Output: b, a, d, c

Value source: patent US20260062412A1
